B1: ZNF263 (parent)
chain: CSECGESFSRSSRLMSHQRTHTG

# Variants of: B1
# procedure.details: protein stability index of a GFP-peptide fusion (GPS, HEK-293T) (PSI 1-6); higher = more stable;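 further: lentivirally expressed fusions sorted by FACS into six bins by GFP to DsRed ratio, PSI derived from sequencing read proportions per bin multiplied by bin number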
# study.conditions: c terminus: native
Label 1 (yes) when protein stability index is at or above 3; anything below gets 0 (no).

INPUT: Can R19M be said to have protein stability index at or above 3?
OUTPUT: 1 (yes)

INPUT: Can S11T be said to have protein stability index at or above 3?
OUTPUT: 0 (no)

INPUT: Can M15C be said to have protein stability index at or above 3?
OUTPUT: 0 (no)

INPUT: Can Q18M be said to have protein stability index at or above 3?
OUTPUT: 1 (yes)

INPUT: Can H21D be said to have protein stability index at or above 3?
OUTPUT: 1 (yes)

INPUT: Can S2P be said to have protein stability index at or above 3?
OUTPUT: 1 (yes)

INPUT: Can E3T be said to have protein stability index at or above 3?
OUTPUT: 1 (yes)

INPUT: Can S2N be said to have protein stability index at or above 3?
OUTPUT: 0 (no)

INPUT: Can G23K be said to have protein stability index at or above 3?
OUTPUT: 1 (yes)

INPUT: Can L14H be said to have protein stability index at or above 3?
OUTPUT: 0 (no)

INPUT: Can E6K be said to have protein stability index at or above 3?
OUTPUT: 1 (yes)

INPUT: Can M15A be said to have protein stability index at or above 3?
OUTPUT: 1 (yes)

INPUT: Can S9L be said to have protein stability index at or above 3?
OUTPUT: 0 (no)

INPUT: Can H17F be said to have protein stability index at or above 3?
OUTPUT: 0 (no)

INPUT: Can S9V be said to have protein stability index at or above 3?
OUTPUT: 0 (no)

INPUT: Can C1E be said to have protein stability index at or above 3?
OUTPUT: 1 (yes)

INPUT: Can L14N be said to have protein stability index at or above 3?
OUTPUT: 0 (no)

INPUT: Can S16H be said to have protein stability index at or above 3?
OUTPUT: 0 (no)

INPUT: Can C1G be said to have protein stability index at or above 3?
OUTPUT: 0 (no)

INPUT: Can S12T be said to have protein stability index at or above 3?
OUTPUT: 0 (no)

INPUT: Can R19L be said to have protein stability index at or above 3?
OUTPUT: 1 (yes)

INPUT: Can H21C be said to have protein stability index at or above 3?
OUTPUT: 0 (no)

INPUT: Can R13V be said to have protein stability index at or above 3?
OUTPUT: 1 (yes)

INPUT: Can T22Q be said to have protein stability index at or above 3?
OUTPUT: 0 (no)

INPUT: Can M15V be said to have protein stability index at or above 3?
OUTPUT: 0 (no)

INPUT: Can R13N be said to have protein stability index at or above 3?
OUTPUT: 1 (yes)

INPUT: Can S2M be said to have protein stability index at or above 3?
OUTPUT: 1 (yes)

INPUT: Can G5L be said to have protein stability index at or above 3?
OUTPUT: 0 (no)

INPUT: Can G23M be said to have protein stability index at or above 3?
OUTPUT: 1 (yes)

INPUT: Can R13P be said to have protein stability index at or above 3?
OUTPUT: 0 (no)

INPUT: Can S2I be said to have protein stability index at or above 3?
OUTPUT: 0 (no)

INPUT: Can E3L be said to have protein stability index at or above 3?
OUTPUT: 0 (no)

INPUT: Can F8K be said to have protein stability index at or above 3?
OUTPUT: 0 (no)

INPUT: Can G5P be said to have protein stability index at or above 3?
OUTPUT: 0 (no)

INPUT: Can C1K be said to have protein stability index at or above 3?
OUTPUT: 0 (no)

INPUT: Can T20C be said to have protein stability index at or above 3?
OUTPUT: 0 (no)

INPUT: Can C1A be said to have protein stability index at or above 3?
OUTPUT: 0 (no)

INPUT: Can R10E be said to have protein stability index at or above 3?
OUTPUT: 1 (yes)

INPUT: Can Q18K be said to have protein stability index at or above 3?
OUTPUT: 0 (no)

INPUT: Can S16I be said to have protein stability index at or above 3?
OUTPUT: 0 (no)

INPUT: Can G23N be said to have protein stability index at or above 3?
OUTPUT: 1 (yes)

INPUT: Can S2Y be said to have protein stability index at or above 3?
OUTPUT: 0 (no)

INPUT: Can S9I be said to have protein stability index at or above 3?
OUTPUT: 0 (no)

INPUT: Can S16L be said to have protein stability index at or above 3?
OUTPUT: 1 (yes)

INPUT: Can T20M be said to have protein stability index at or above 3?
OUTPUT: 0 (no)

INPUT: Can F8M be said to have protein stability index at or above 3?
OUTPUT: 0 (no)

INPUT: Can L14G be said to have protein stability index at or above 3?
OUTPUT: 0 (no)

INPUT: Can R19F be said to have protein stability index at or above 3?
OUTPUT: 1 (yes)

INPUT: Can R10M be said to have protein stability index at or above 3?
OUTPUT: 1 (yes)

INPUT: Can S12K be said to have protein stability index at or above 3?
OUTPUT: 0 (no)

INPUT: Can S12G be said to have protein stability index at or above 3?
OUTPUT: 0 (no)

Data provenance: the supplement of paper PMC10567573
